assay: refractive index (Na D-line) (dimensionless); conditions: 303.15 K; 101.33 kPa; Liquid; Standard Abbe refractometry
observed property: refractive index

- molecule smiles: "CCCCC"
  refractive index: 1.3523
- molecule smiles: "O=S1(=O)CCCC1"
  refractive index: 1.4823
- molecule smiles: "CC(C)CC(=O)O"
  refractive index: 1.3997
- molecule smiles: "CC(=O)O"
  refractive index: 1.3716
- molecule smiles: "CCCCC(=O)O"
  refractive index: 1.4047
- molecule smiles: "CC(C)C(=O)O"
  refractive index: 1.3893
- molecule smiles: "CCCC(=O)O"
  refractive index: 1.3947
- molecule smiles: "CCC(=O)O"
  refractive index: 1.3829
